Listing: IC90, HCVpp neutralization of selected binders
# system name: E1E2 of HCV isolate UKN4.11.1 (genotype 4) (Hepatitis C virus genotype 4)
# experiment summary: cell-based or functional assay

{"columns": ["binder", "sign", "IC90, HCVpp neutralization / µg/mL"],
 "data": [
  ["AT12-011 (antibody, V domains shown) VH: QVQLVQSGAEVKKPGSSVKVSCKASGGTFSGYGITWVRQAPGQGLEWMGTIIPVSATETYAQRLQGRVTISADEHSTTSYMEVSSLKSEDTALYYCARHDYFWGTPLDIWGQGTMVIVSS VL: EIVLTQSPDFQSVTPKEKVTITCRASQSIGSNLHWYQQKPGQSPKLLIKYASQSFSGVPSRFSGSGSGTDFTLTINSLEAEDAATYFCHQSYNLPRTFGGGTKVEIKR", ">", 50],
  ["AT12-007 (antibody, V domains shown) VH: QVQLEQSGAEVKKPGASVKVSCKVSGYTLTELSMHWVRQAPGKGLEWMGSFDPADGERLYAQKFQGRVIMSEDTSTDTAYMELSSLRSEDAAVYYCATAPRMTMFGVIMALDSWGQGTLVTVSS VL: DIQMTQSPSTLSASLGDRVTITCRASQNINKYLAWYQQKPGKAPKLLIYKASNLQSGVPSRFSGSGSGTDFILTISSLQPDDFATYYCQQYTTYSAWTFGQGTNVDIKR", ">", 50],
  ["AT13-021 (antibody, V domains shown) VH: QVQLVQSGAEVKKPGSSVKVSCKASGGTFNTHAFSWVRQAPGEGLEWMGGISPMSGTPNYAQKFQGRLTITADESTSTGYMELRSLTSEDTAVYYCARELIGYCTGGNCYSFGDFWGQGTLITVSS VL: EIVMTQSPATLSVSPGERATLSCRASQSVSSHLAWYQHKPGQAPRLLISGASTRAVGVPARFSGSGSGTEFTLTISSLQSEDFAVYYCHQYNTWPRGFGQGTKVDFKR", "=", 13.9],
  ["AT12-009 (antibody, V domains shown) VH: SSVRVSCKASGDTFKTHAISWVRQAPGQGLEWVGGTVRQAPGDGLELLGGFVPILAPANDAQKFQGRVTITADGSTGPVYMDLSTLTSEDTAMYYCVTSLSEPIPRSCRGGRCYSGPFDAFGVWGQGTMVTVSS VL: ETMLTQSPVTLSVSPGERATLSCRASQSIGTNLAWYQQKPGQAPRLLIHGASTRATGVPVSFSGSGSGTEFTLTISSLQSEDFAVYYCQQYNNWPLTFGGGTKVDFKR", "=", 14.1]
]}
